property.label: logP

# example entries with known answers
[
  {
    "compound": "COc1ccc(CCNC[C@H](O)COc2ccc(COCc3ncc[nH]3)cc2)cc1OC",
    "observed": 1.29
  },
  {
    "compound": "COCCc1cnc(-c2ccc(OC[C@@H](O)CNCCc3ccc(OC)c(OC)c3)cc2)[nH]1",
    "observed": 2.06
  },
  {
    "compound": "COc1ccc(CCNC[C@H](O)COc2ccc(-c3ncc(Br)[nH]3)cc2Cl)cc1OC",
    "observed": 2.73
  },
  {
    "compound": "CC(C)NCC(O)COc1ccc(-c2ncc[nH]2)cc1 (stereo not given)",
    "observed": 0.65
  },
  {
    "compound": "Cc1cnc(Cc2ccc(OC[C@@H](O)CNC(C)(C)C)cc2)[nH]1",
    "observed": 1.11
  },
  {
    "compound": "COc1ccc(CCNC[C@H](O)COc2ccc(-c3nc(Br)c(C)[nH]3)cc2)cc1OC",
    "observed": 2.69
  },
  {
    "compound": "CC(C)NC[C@H](O)COc1ccc(-c2ncc(C(C)C)[nH]2)cc1",
    "observed": 2.23
  },
  {
    "compound": "COc1ccc(CCNC[C@H](O)COc2ccc(-c3ncc(C(N)=O)[nH]3)cc2)cc1OC",
    "observed": 0.99
  }
]

Record logP per entry; entries follow.
1. COc1ccc(CCNCC(O)COc2ccc(-c3ncc(C)[nH]3)cc2OC)cc1OC (stereo not given)
2. O=C(NCCNCC(O)COc1ccc(-c2ncc[nH]2)cc1)Nc1ccccc1 (stereo not given)

[1.89, 1.19]

---

Please enter condition met where logP is greater than or equal to 2, and condition not met where it is lower.

[
  {
    "compound": "COc1ccc(CCNC[C@H](O)COc2ccc(-c3ncc(-c4cccs4)[nH]3)cc2C)cc1OC",
    "cat": "condition met"
  }
]

Entry COc1ccc(CCNCC(O)COc2ccc(-c3ncc(C)[nH]3)cc2Br)cc1OC (stereo not given) : is its logP no less than 2? condition met

Entry `COc1ccc(CCNC[C@H](O)COc2ccc(-c3ncc(CO)[nH]3)cc2)cc1OC` : is its logP no less than 2? condition not met

Entry COc1ccc(CCNCC(O)COc2ccc(OCc3ncc[nH]3)cc2)cc1OC (stereo not given) : is its logP no less than 2? condition not met

---

Please enter criterion met where logP is greater than or equal to 2, and criterion not met where it is lower.

Completed entries (count: 3):
[
  {
    "compound": "COc1ccc(CCNC[C@H](O)COc2ccc(-c3nc(C(C)=O)c(C)[nH]3)cc2)cc1OC",
    "cat": "criterion met"
  },
  {
    "compound": "COc1ccc(CCNCC(O)COc2ccc(-c3ncc(C)n3C)cc2)cc1OC (stereo not given)",
    "cat": "criterion not met"
  },
  {
    "compound": "COc1ccc(CCNCC(O)COc2ccc(-c3ncco3)cc2)cc1OC (stereo not given)",
    "cat": "criterion met"
  }
]

Entry `CCOCc1cnc(-c2ccc(OC[C@@H](O)CNCCc3ccc(OC)c(OC)c3)cc2)[nH]1` : is its logP no less than 2? criterion not met

Entry `COc1ccc(CCNC[C@H](O)COc2ccc(-c3ncc(C(C)C)[nH]3)cc2)cc1OC` : is its logP no less than 2? criterion met

Entry OC(CNCCc1ccncc1)COc1ccc(-c2ncc(-c3cccs3)[nH]2)cc1 (stereo not given) : is its logP no less than 2? criterion met
